Values compiled from patent US20130150350A1.

pIC50 for assorted compounds
- system_name: HIV-1NL4-3 CA-NC protein (SEQ ID NO: 2) (Human immunodeficiency virus type 1 group M subtype B, UniProt P12493, G226D)
- Construct: HIV-1NL4-3 CA-NC, Gag residues 133-432; initiator Met (start codon introduced by PCR primer) (N); made in house; host or cells: E. coli BL21(DE3), pET-11a
- test_protocol: Immobilized capsid assembly assay (CAA)
- Format: biochemical
- Protocol: SEQ ID NO: 1 is a nucleic acid of 900 base pairs encoding HIV-1NL4-3 CA-NC, Gag residues 133-432, having the CA G94D mutation (SEQ ID NO: 2). […] Reacti-Bind Neutravidin Coated black 384-well plates (Pierce Cat#15402) are washed with 80 μl/well of Buffer A (50 mM Tris pH 8.0; 350 mM NaCl; 10 μM ZnSO4; 0.0025% CHAPS (w/v); 50 μg/ml bovine serum albumin (BSA); 1 mM DTT). […] The amount of captured fluorescence is considered to be proportional to the level of assembly. […]
pIC50: −log10 of the molar value.
readout_label: pIC50

INSERT INTO measurements (compound, readout_label, value_measured) VALUES
  ('CCN1C(=O)C(c2ccccc2)C(=O)N(c2cccs2)c2cc(C(F)(F)F)ccc21 (stereo not shown) [Compound 2003]', 'pIC50', 6.09),
  ('CN1C(=O)C(c2ccc(O)cc2)C(=O)N(c2ccccc2)c2cc(C(F)(F)F)ccc21 (stereo not shown) [Compound 2009]', 'pIC50', 6.04),
  ('CCCn1cc(-c2cc(C3C(=O)N(CC)c4ccc(C(F)(F)F)cc4N(c4ccccc4)C3=O)cc(OC)c2O)cn1 (stereo not shown) [Compound 2059]', 'pIC50', 6.35),
  ('CCN1C(=O)C(c2ccc(-c3cccnc3)cc2)C(=O)N(c2ccccc2)c2cc(C(F)(F)F)ccc21 (stereo not shown) [Compound 2030]', 'pIC50', 6.41),
  ('CCN1C(=O)C(c2ccc(CN3CCNCC3)cc2)C(=O)N(c2ccccc2)c2cc(C(F)(F)F)ccc21 (stereo not shown) [Compound 2018]', 'pIC50', 6.28),
  ('CCN1C(=O)C(c2cccnc2)C(=O)N(c2ccccc2)c2cc(C(F)(F)F)ccc21 (stereo not shown) [Compound 2076]', 'pIC50', 5.80),
  ('CCN1C(=O)C(c2ccccc2)C(=O)N(c2ccccc2)c2cc(C(F)(F)F)ccc21 (stereo not shown) [Compound 2002]', 'pIC50', 6.14),
  ('CCN1C(=O)C(c2cccc(-c3cccnc3)c2O)C(=O)N(c2ccccc2)c2cc(C(F)(F)F)ccc21 (stereo not shown) [Compound 2035]', 'pIC50', 5.89),
  ('CCN1C(=O)C2(CCc3ccccc32)C(=O)N(c2ccccc2)c2cc(C(F)(F)F)ccc21 (racemic) [Compound 7001]', 'pIC50', 6.14),
  ('COCCN/C=C1/C(=O)N(C)c2ccc(C(F)(F)F)cc2N(c2ccccc2)C1=O [Compound 1011]', 'pIC50', 6.05);
